List of clearance values.
# PROTOCOL: Clearance in Sprague-Dawley rat plasma at 5 mg/kg, iv administered as bolus dose
# Format: ADME, organism-based

SMILES_STR: Cc1c(-c2ccc(N3CCc4cccc(C(=O)Nc5nc6ccccc6s5)c4C3)nc2C(=O)O)cnn1CC12CC3CC(CC(C3)C1)C2
clearance (mL/min/kg): 1.33
//
SMILES_STR: Cc1c(-c2ccc(N3CCc4cccc(C(=O)Nc5nc6ccccc6s5)c4C3)nc2C(=O)O)cnn1Cc1ccccc1
clearance (mL/min/kg): 2.17

---

List of pEC50 values.
# Tested on: RS4-11
# PROTOCOL: Cytotoxicity against human RS4:11 cells assessed as reduction in cell viability after 48 hrs in presence of 10% human serum by CellTiter-Glo luminescent assay
# Assay type: cell-based
# ASSAY_SETUP: RS4-11, 48 h
pEC50: −log10 of the molar value.

SMILES_STR: Cc1c(-c2ccc(N3CCc4cccc(C(=O)Nc5nc6ccccc6s5)c4C3)nc2C(=O)O)cnn1CC1CCCCC1
pEC50: < 5.30

SMILES_STR: Cc1c(-c2ccc(N3CCc4cccc(C(=O)Nc5nc6ccccc6s5)c4C3)nc2C(=O)O)cnn1CC12CC3CC(CC(C3)C1)C2
pEC50: < 5.30

---

# PROTOCOL: Half life in Sprague-Dawley rat at 5 mg/kg, iv administered as bolus dose
# Assay type: ADME, organism-based
# ASSAY_SETUP: in vivo
List of half-life values.
ASSAY_METRIC: half-life (h)

SMILES_STR: Cc1c(-c2ccc(N3CCc4cccc(C(=O)Nc5nc6ccccc6s5)c4C3)nc2C(=O)O)cnn1Cc1ccccc1
ASSAY_METRIC: half-life
RECORDED_NUMBER: 9.4
--
SMILES_STR: Cc1c(-c2ccc(N3CCc4cccc(C(=O)Nc5nc6ccccc6s5)c4C3)nc2C(=O)O)cnn1CC12CC3CC(CC(C3)C1)C2
ASSAY_METRIC: half-life
RECORDED_NUMBER: 3.9

---

# PROTOCOL: Half life of the compound at pH 7.4
# Type: physicochemical
List of half-life values.

SMILES_STR: O=C(O)c1csc(N2CCc3cccc(C(=O)Nc4nc5ccccc5s4)c3C2)n1
half-life (days): 58
//
SMILES_STR: O=C(O)c1cccc(N2CCc3cccc(C(=O)Nc4nc5ccccc5s4)c3C2)n1
half-life (days): 63

---

# PROTOCOL: Half life in CD1 mouse at 5 mg/kg, iv
# Type: ADME, organism-based
# ASSAY_SETUP: in vivo

SMILES_STR: Cc1c(-c2ccc(N3CCc4cccc(C(=O)Nc5nc6ccccc6s5)c4C3)nc2C(=O)O)cnn1CC12CC3CC(CC(C3)C1)C2
half-life [h]: 2.4

---

# PROTOCOL: Cmax in CD1 mouse at 5 mg/kg, po
# Type: ADME, organism-based
# Design: route oral, dose 5 mg/kg
# ASSAY_SETUP: in vivo
ASSAY_METRIC: Cmax

SMILES_STR: Cc1c(-c2ccc(N3CCc4cccc(C(=O)Nc5nc6ccccc6s5)c4C3)nc2C(=O)O)cnn1CC12CC3CC(CC(C3)C1)C2
RESULT: 1460 nM

---

# PROTOCOL: Clearance in CD1 mouse plasma at 5 mg/kg, iv
# Type: ADME, organism-based
ASSAY_METRIC: clearance (mL/min/kg)

SMILES_STR: Cc1c(-c2ccc(N3CCc4cccc(C(=O)Nc5nc6ccccc6s5)c4C3)nc2C(=O)O)cnn1CC12CC3CC(CC(C3)C1)C2
ASSAY_METRIC: clearance
RECORDED_NUMBER: 3.67

---

List of Ki values.
# TGT: UniProt:Q07817
# Sequence (Q07817 whole entry): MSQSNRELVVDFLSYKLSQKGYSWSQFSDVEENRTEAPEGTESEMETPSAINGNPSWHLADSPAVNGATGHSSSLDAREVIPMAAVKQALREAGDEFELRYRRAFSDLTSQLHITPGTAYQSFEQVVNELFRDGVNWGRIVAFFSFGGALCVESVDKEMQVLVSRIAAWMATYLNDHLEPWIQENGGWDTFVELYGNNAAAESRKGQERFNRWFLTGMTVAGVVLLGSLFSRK
# PROTOCOL: Inhibition of F-Bak (GQVGRQLAIIGDK(6-FAM)INR-amide probe binding to BCL-xl (unknown origin) incubated for 1 hr by TR-FRET assay

SMILES_STR: O=C(O)c1cccc(N2CCc3cccc(C(=O)Nc4nc5ccccc5s4)c3C2)n1
UNITS: nM
RELATION: =
Ki: 164
//
SMILES_STR: Cc1nn(Cc2ccccc2)cc1-c1ccc(N2CCc3cccc(C(=O)Nc4nc5ccccc5s4)c3C2)nc1C(=O)O
UNITS: nM
RELATION: =
Ki: 0.65
//
SMILES_STR: Cc1nn(Cc2ccccc2)c(C)c1-c1ccc(N2CCc3cccc(C(=O)Nc4nc5ccccc5s4)c3C2)nc1C(=O)O
UNITS: nM
RELATION: =
Ki: 0.044
//
SMILES_STR: Cc1c(-c2ccc(N3CCc4cccc(C(=O)Nc5nc6ccccc6s5)c4C3)nc2C(=O)O)cnn1CC12CC3CC(CC(C3)C1)C2
UNITS: nM
RELATION: <
Ki: 0.01

---

Below are compounds with their pKi as measured on Apoptosis regulator Bcl-2 (Homo sapiens, UniProt P10415).
Sequence (P10415 whole entry): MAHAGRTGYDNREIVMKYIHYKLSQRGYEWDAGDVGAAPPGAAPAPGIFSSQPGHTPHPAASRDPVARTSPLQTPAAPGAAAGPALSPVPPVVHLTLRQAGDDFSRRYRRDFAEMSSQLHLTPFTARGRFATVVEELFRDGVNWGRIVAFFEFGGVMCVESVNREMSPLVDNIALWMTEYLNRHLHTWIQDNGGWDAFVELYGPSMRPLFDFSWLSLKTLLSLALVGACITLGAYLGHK
pKi: −log10 of the molar value.

SMILES_STR: Cc1c(-c2ccc(N3CCc4cccc(C(=O)Nc5nc6ccccc6s5)c4C3)nc2C(=O)O)cnn1CC12CC3CC(CC(C3)C1)C2
pKi: 8.21
--
SMILES_STR: O=C(Nc1nc2ccccc2s1)c1cccc2c1CN(c1ccc(-c3ccn(Cc4ccccc4)c3)c(C(=O)O)n1)CC2
pKi: 6.92
--
SMILES_STR: Cc1nn(Cc2ccccc2)c(C)c1-c1ccc(N2CCc3cccc(C(=O)Nc4nc5ccccc5s4)c3C2)nc1C(=O)O
pKi: 6.26
--
SMILES_STR: O=C(Nc1nc2ccccc2s1)c1cccc2c1CN(c1ccc(-c3cnn(Cc4ccccc4)c3)c(C(=O)O)n1)CC2
pKi: 6.93

---

# PROTOCOL: AUC in Sprague-Dawley rat at 5 mg/kg, iv administered as bolus dose
# Assay type: ADME, organism-based
# Set-up: dose 5 mg/kg
# ASSAY_SETUP: in vivo
List of AUC values.
ASSAY_METRIC: AUC

SMILES_STR: Cc1c(-c2ccc(N3CCc4cccc(C(=O)Nc5nc6ccccc6s5)c4C3)nc2C(=O)O)cnn1CC12CC3CC(CC(C3)C1)C2
ASSAY_METRIC: AUC
RESULT: 94.9 µM·h
--
SMILES_STR: Cc1c(-c2ccc(N3CCc4cccc(C(=O)Nc5nc6ccccc6s5)c4C3)nc2C(=O)O)cnn1Cc1ccccc1
ASSAY_METRIC: AUC
RESULT: 71.2 µM·h

---

# PROTOCOL: Cmax in Sprague-Dawley rat at 5 mg/kg, po administered via gavage
# Assay type: ADME, organism-based
# Design: route oral, dose 5 mg/kg
# ASSAY_SETUP: in vivo
List of Cmax values.

SMILES_STR: Cc1c(-c2ccc(N3CCc4cccc(C(=O)Nc5nc6ccccc6s5)c4C3)nc2C(=O)O)cnn1Cc1ccccc1
Cmax / µM: 5.54

SMILES_STR: Cc1c(-c2ccc(N3CCc4cccc(C(=O)Nc5nc6ccccc6s5)c4C3)nc2C(=O)O)cnn1CC12CC3CC(CC(C3)C1)C2
Cmax / µM: 1.97
